Test system: SARS-CoV-2
Experiment: microbe, parasite or virus in culture
Setup conditions: Severe acute respiratory syndrome coronavirus 2, 860-J1 (Delta), Vero
Description: Antiviral activity against SARS-CoV-2 860-J1 (Delta) infected in African green monkey Vero cells assessed as reduction in virus-induced cytopathic effect incubated for 6 to 7 days by microscopic analysis
Non-standard residues stand in square brackets, D forms with d. Residues, ends and D or L forms follow the SMILES beside them. *: point of attachment. AllylGly = C=CC[C@H](N)C(=O)O; NHBn = c1ccc(CN*)cc1; ClAc = O=C(CCl)*
Each entry below lists one item and its recorded EC50 value.
Note: unit µM is implicit; provide only the numeric part.

Use the examples below as a reference point.
INSERT INTO measurements (compound, system, measured_quantity, obs_value) VALUES
  ('C=CC[C@H](NC(=O)CCl)C(=O)N[C@@H](Cc1c[nH]c2ccccc12)C(=O)NCc1ccccc1 (ClAc-[AllylGly]-Trp-NHBn)', 'SARS-CoV-2', 'EC50', 2.12),
  ('C=CC[C@H](NC(=O)CCl)C(=O)N[C@@H](CC=C)C(=O)N[C@H](CNCc1ccccc1)Cc1c[nH]c2ccccc12', 'SARS-CoV-2', 'EC50', 18.1),
  ('C=CC[C@H](NC(=O)CCl)C(=O)N[C@@H](Cc1c[nH]c2ccccc12)C(=O)NCCN1CCOCC1', 'SARS-CoV-2', 'EC50', 29.2);

Quick note, EC50 for "CC(C)C[C@H](NC(=O)CCl)C(=O)N[C@@H](Cc1c[nH]c2ccccc12)C(=O)NCc1ccccc1" landed at 1.2

====

Experiment: Cytotoxicity against African green monkey Vero cells assessed as change in cell morphology by measuring minimum cytotoxic concentration by microscopic analysis
Format: toxicity, cell-based
Setup conditions: chlorocebus sabaeus
Residues, ends and D or L forms follow the SMILES beside them. *: point of attachment. NHBn = c1ccc(CN*)cc1; ClAc = O=C(CCl)*
Measured quantity: MCC

Use these answered entries as a reference point.
INSERT INTO measurements (molecule, obs_value) VALUES
  ('O=C(CS)N[C@@H](Cc1ccccc1)C(=O)N[C@@H](Cc1c[nH]c2ccccc12)C(=O)NCc1ccccc1', '> 100 µM'),
  ('COC(=O)[C@H](CC(C)C)NC(=O)[C@H](Cc1c[nH]c2ccccc12)NC(=O)CCl (ClAc-Trp-Leu-OMe)', '21 µM'),
  ('CC(C)C[C@H](NC(=O)CCl)C(=O)N[C@@H](Cc1ccccc1)C(=O)N[C@@H](Cc1c[nH]c2ccccc12)C(=O)NCc1ccccc1 (ClAc-Leu-Phe-Trp-NHBn)', '> 100 µM');

Sample "C=CC[C@H](NC(=O)CCl)C(=O)N[C@@H](CC=C)C(=O)N[C@H](CNCc1ccccc1)Cc1c[nH]c2ccccc12" ; MCC observed: > 100 µM

Lab book: MCC of "C=CC(=O)N[C@@H](CC(C)C)C(=O)N[C@@H](Cc1c[nH]c2ccccc12)C(=O)NCc1ccccc1" noted as > 100 µM

MCC reported for this molecule "CCC(CC)COC(=O)[C@H](C)N[P@](=O)(OC[C@H]1O[C@@](C#N)(c2ccc3c(N)ncnn23)[C@H](O)[C@@H]1O)Oc1ccccc1" : > 40 µM

# molecule CC(C)C[C@H](NC(=O)[C@H](Cc1c[nH]c2ccccc12)NC(=O)CCl)C(=O)NCc1ccccc1 (ClAc-Trp-Leu-NHBn) ; its MCC = 20 µM

====

Experiment: Metabolic stability in human liver microsomes assessed as half life incubated upto 60 mins in presence of NADPH and UDPGA by LC-MS analysis
Type: ADME, Microsome
Residues, ends and D or L forms follow the SMILES beside them. *: point of attachment. NHBn = c1ccc(CN*)cc1; ClAc = O=C(CCl)*
The entries below are paired with their reported half-life.
Record the result as a number with its unit.

INSERT INTO assay_data (molecule, obs_value) VALUES
  ('O=C(CCl)NCC(=O)N[C@@H](Cc1c[nH]c2ccccc12)C(=O)NCc1ccccc1 (ClAc-Gly-Trp-NHBn)', '122 min');

# half-life of O=C(CCl)N[C@@H](Cc1ccccc1)C(=O)N[C@@H](Cc1c[nH]c2ccccc12)C(=O)NCc1ccccc1 (ClAc-Phe-Trp-NHBn) = 19.6 min

What the record says about "CC(C)C[C@H](NC(=O)CCl)C(=O)N[C@@H](Cc1c[nH]c2ccccc12)C(=O)NCc1ccccc1" : half-life is 21.1 min

// recorded half-life for "CC(C)C[C@@H](NC(=O)CCl)C(=O)N[C@@H](Cc1c[nH]c2ccccc12)C(=O)NCc1ccccc1" : 75.3 min

====

System: Procathepsin L (Homo sapiens)
Sequence (P07711 whole entry): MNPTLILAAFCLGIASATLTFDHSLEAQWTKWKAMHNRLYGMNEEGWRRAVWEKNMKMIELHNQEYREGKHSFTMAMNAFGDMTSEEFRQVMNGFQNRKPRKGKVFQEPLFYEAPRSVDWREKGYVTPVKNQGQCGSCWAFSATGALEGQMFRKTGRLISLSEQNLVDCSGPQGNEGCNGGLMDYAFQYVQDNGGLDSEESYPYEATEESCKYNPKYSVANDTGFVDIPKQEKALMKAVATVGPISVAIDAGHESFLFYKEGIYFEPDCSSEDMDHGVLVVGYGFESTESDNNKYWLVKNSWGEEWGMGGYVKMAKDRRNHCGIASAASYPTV
Measured quantity: IC50 (nM)
Form entry: value (nM) — number only.

Reported Procathepsin L (Homo sapiens) IC50 for item CCOC(=O)[C@H]1O[C@@H]1C(=O)N[C@@H](CC(C)C)C(=O)NCCC(C)C [ALOXISTATIN] was 34

====

The following compounds are listed with their measured half-life values.
Experiment: Metabolic stability in human liver microsomes assessed as half life incubated upto 60 mins in presence of NADPH by LC-MS analysis
Type: ADME, Microsome
Residues, ends and D or L forms follow the SMILES beside them. *: point of attachment. NHBn = c1ccc(CN*)cc1; ClAc = O=C(CCl)*
Respond with the bare value in min.

INSERT INTO results (compound, obs_value) VALUES
  ('CC(C)C[C@H](NC(=O)CCl)C(=O)N[C@@H](Cc1c[nH]c2ccccc12)C(=O)NCc1ccccc1', 29.7);

Entry O=C(CCl)NCC(=O)N[C@@H](Cc1c[nH]c2ccccc12)C(=O)NCc1ccccc1 (ClAc-Gly-Trp-NHBn) — recorded half-life = 346

Field half-life (entry O=C(CCl)N[C@@H](Cc1ccccc1)C(=O)N[C@@H](Cc1c[nH]c2ccccc12)C(=O)NCc1ccccc1 (ClAc-Phe-Trp-NHBn) ) reads 38.3

The reported half-life of the compound "CC(C)C[C@@H](NC(=O)CCl)C(=O)N[C@@H](Cc1c[nH]c2ccccc12)C(=O)NCc1ccccc1" was 74.5

====

Each record here notes measured half-life at 10 µM.
Experiment: Half life in human plasma at 10 uM measured upto 180 mins by LC-MS analysis
Format: ADME, cell-free
Residues, ends and D or L forms follow the SMILES beside them. *: point of attachment. NHBn = c1ccc(CN*)cc1; ClAc = O=C(CCl)*
Write down the numeric answer in h and omit the unit.

INSERT INTO assay_data (molecule, measured_quantity, value_unit, obs_value) VALUES
  ('CC(C)C[C@@H](NC(=O)CCl)C(=O)N[C@@H](Cc1c[nH]c2ccccc12)C(=O)NCc1ccccc1', 'half-life at 10 µM', 'h', 3.87);

Let us move to another entry and its half-life at 10 µM.
// half-life at 10 µM value for CC(C)C[C@H](NC(=O)[C@H](Cc1c[nH]c2ccccc12)NC(=O)CCl)C(=O)NCc1ccccc1 (ClAc-Trp-Leu-NHBn) : 0.407

====

Experiment: Stability in simulated gastric fluid assessed as parent compound remaining incubated upto 120 mins by LC-MS analysis
Type: ADME
Setup conditions: read-out: Stability
Residues, ends and D or L forms follow the SMILES beside them. *: point of attachment. NHBn = c1ccc(CN*)cc1; ClAc = O=C(CCl)*
Listing of entries alongside the reported remaining at 2 h.

# remaining at 2 h of "CC(C)C[C@H](NC(=O)CCl)C(=O)N[C@@H](Cc1c[nH]c2ccccc12)C(=O)NCc1ccccc1" = > 80%

Noted for "CC(C)C[C@@H](NC(=O)CCl)C(=O)N[C@@H](Cc1c[nH]c2ccccc12)C(=O)NCc1ccccc1" : its remaining at 2 h reads > 80%

Consider O=C(CCl)N[C@@H](Cc1ccccc1)C(=O)N[C@@H](Cc1c[nH]c2ccccc12)C(=O)NCc1ccccc1 (ClAc-Phe-Trp-NHBn) . Its measured remaining at 2 h is > 80%

Value of remaining at 2 h reported for the molecule CC(C)C[C@H](NC(=O)[C@H](Cc1c[nH]c2ccccc12)NC(=O)CCl)C(=O)NCc1ccccc1 (ClAc-Trp-Leu-NHBn) is > 80%

Sure, the documented remaining at 2 h for O=C(CCl)NCC(=O)N[C@@H](Cc1c[nH]c2ccccc12)C(=O)NCc1ccccc1 (ClAc-Gly-Trp-NHBn) is > 80%

====

Test system: SARS-CoV-2
Experiment: microbe, parasite or virus in culture
Setup conditions: Severe acute respiratory syndrome coronavirus 2, 860-J1 (Delta), Vero
Residues, ends and D or L forms follow the SMILES beside them. *: point of attachment. NHBn = c1ccc(CN*)cc1; ClAc = O=C(CCl)*
This listing pairs molecules with measured pEC50.
Quick note: pEC50 values are minus log10 of concentrations in mol/L.

Field: example entries. Status: answers known.
INSERT INTO measurements (molecule, obs_value) VALUES
  ('O=C(CCl)N[C@@H](Cc1ccc(O)cc1)C(=O)N[C@@H](Cc1c[nH]c2ccccc12)C(=O)NCc1ccccc1 (ClAc-Tyr-Trp-NHBn)', 4.91),
  ('CC(C)C[C@@H](NC(=O)CCl)C(=O)N[C@@H](Cc1c[nH]c2ccccc12)C(=O)NCc1ccccc1', 5.97);

Switching to the query record.
Param item: "CC(C)C(=O)OC[C@H]1O[C@@H](n2ccc(NO)nc2=O)[C@H](O)[C@@H]1O" ; param system: SARS-CoV-2; output pEC50: 5.22
